Cited source for all entries: patent US12084436B2

Target: HDAC6 enzyme (Homo sapiens)
Construct: prepared by transducing full length HDAC6 gene into Sf-9 insect cells; GST; purchased SignalChem; host or cells: Sf-9 insect cells
Sequence (Q9UBN7 1-1215): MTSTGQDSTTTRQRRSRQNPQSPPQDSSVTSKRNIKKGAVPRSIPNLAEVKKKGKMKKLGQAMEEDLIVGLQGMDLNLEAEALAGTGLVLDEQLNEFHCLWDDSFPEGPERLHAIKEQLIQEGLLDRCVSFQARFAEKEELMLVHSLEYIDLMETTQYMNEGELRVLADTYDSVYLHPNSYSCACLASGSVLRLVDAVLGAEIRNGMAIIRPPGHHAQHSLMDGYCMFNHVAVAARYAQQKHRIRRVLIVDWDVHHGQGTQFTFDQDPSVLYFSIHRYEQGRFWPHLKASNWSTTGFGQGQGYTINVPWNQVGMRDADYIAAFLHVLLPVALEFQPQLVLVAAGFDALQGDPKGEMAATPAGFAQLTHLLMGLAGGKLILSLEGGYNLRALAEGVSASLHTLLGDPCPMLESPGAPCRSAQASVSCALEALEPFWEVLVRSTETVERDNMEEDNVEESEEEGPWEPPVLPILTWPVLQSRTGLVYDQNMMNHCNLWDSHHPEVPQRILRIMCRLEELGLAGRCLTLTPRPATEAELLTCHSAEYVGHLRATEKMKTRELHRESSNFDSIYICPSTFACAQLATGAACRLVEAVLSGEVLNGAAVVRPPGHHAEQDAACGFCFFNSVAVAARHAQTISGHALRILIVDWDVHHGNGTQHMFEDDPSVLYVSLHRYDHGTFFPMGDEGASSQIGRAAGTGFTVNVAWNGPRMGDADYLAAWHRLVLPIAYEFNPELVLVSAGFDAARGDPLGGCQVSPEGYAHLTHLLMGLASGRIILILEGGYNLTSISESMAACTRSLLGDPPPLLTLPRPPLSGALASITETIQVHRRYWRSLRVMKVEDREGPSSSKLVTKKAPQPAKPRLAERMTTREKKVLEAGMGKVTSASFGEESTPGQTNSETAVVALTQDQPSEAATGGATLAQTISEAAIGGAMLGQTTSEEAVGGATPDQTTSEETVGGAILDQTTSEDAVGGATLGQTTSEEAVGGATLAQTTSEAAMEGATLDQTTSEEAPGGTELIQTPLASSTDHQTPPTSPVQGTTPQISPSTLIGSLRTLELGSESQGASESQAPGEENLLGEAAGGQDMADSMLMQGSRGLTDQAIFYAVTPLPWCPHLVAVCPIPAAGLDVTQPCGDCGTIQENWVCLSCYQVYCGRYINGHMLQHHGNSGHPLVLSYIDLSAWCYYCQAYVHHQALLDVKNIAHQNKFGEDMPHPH
Test: HDAC6 enzyme inhibitory assay (HDAC-Glo I/II Assay kit, luminescence)
Type: biochemical
Details: 10 μM test compound; wells without enzyme = 100% inhibition; read-out: HDAC6 inhibitory rate (%) (10 μM)
measurement name: inhibition at 10 µM (%)

Please fill in: inhibition at 10 µM reported for Cc1nnc(Cn2ccnc2-c2cc(F)cc(-c3nnc(C(F)F)o3)c2)o1 [Example 54a] = 89

The recorded inhibition at 10 µM for entry Cc1cc(Cn2ccnc2-c2cc(F)cc(-c3nnc(C(F)F)o3)c2)n(C)n1 [Example 64a] equals 98

So, CN1C(=O)c2cc(-c3nnc(C(F)F)o3)ccc2OC1(C)c1ccc(C#N)cc1 (stereo not drawn) [Example 20b] ? Its inhibition at 10 µM was 99

Record summary for Fc1cc(-c2nnc(C(F)F)o2)cc(-c2nccn2Cc2cccnn2)c1 [Example 26a] : reported inhibition at 10 µM = 96

inhibition at 10 µM recorded for this molecule, FC(F)c1nnc(-c2ccnc(-c3nccn3Cc3ccccn3)c2)o1 [Example 3a] , is 99

(I) CN1C(=O)c2cc(-c3nnc(C(F)F)o3)ccc2OC1(C)c1ccccn1 (stereo not drawn) [Example 12b]
(II) O=C1COCC(Cc2ccccn2)N1c1cc(F)cc(-c2nnc(C(F)F)o2)c1 (stereo not drawn) [Example 42a]
I need your help: which of the pair I , II has higher inhibition at 10 µM? Bench note: the answer is the label of the chosen record.
I
